Hello, the source for this data is patent US20200270345A1, in case you need it.

# maps each entry to its OD units, binding on CD47 proprietary
biological target: CD47 proprietary (human, UniProt Q08722 19-134, limits assumed); assay: ELISA on CD47 proprietary, 450 nm
Sequence (Q08722 19-134 limits assumed): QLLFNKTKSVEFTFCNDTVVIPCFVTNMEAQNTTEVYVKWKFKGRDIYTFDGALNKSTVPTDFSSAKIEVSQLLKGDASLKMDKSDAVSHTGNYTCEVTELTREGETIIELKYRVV

Binder	OD units, binding on CD47 proprietary
BCD106-02_L.Alecto.VHHSel2_MP1_C7_49 (VHH, Llama anti-CD47 VHH tested as E. coli culture supernatant; not shown: myc and His6 tags at the C-terminus of the VHH (pET-22)) VHH: AVQLVDSGGGLVQPGGSLRLSCAASRSIFSINAMNWYRQPPGNRREWVAQITDEGITNYVDSVKGRFTITRDNAKNTMYLQMNSLKPEDTAVYYCNAFVITTTSEIYWGQGTTVTVSS	0.379 OD units
BCD106-02_L.Alecto.VHHSel2_MP1_B9_64 (VHH, Llama anti-CD47 VHH tested as E. coli culture supernatant; not shown: myc and His6 tags at the C-terminus of the VHH (pET-22)) VHH: DVQLVESGGGLVQPGGSLTLSCAASRNIFRINAMNWYRQAPGKRREWVAPITSEGITNYVDSVKGRFTITRDNAKNTMYLQMNSLKPEDTAVYYCNACLITASSEVYWGQGTLVTVSS	0.24 OD units
BCD106-02_L.Alecto.VHHSel2_MP1_H10_78 (VHH, Llama anti-CD47 VHH tested as E. coli culture supernatant; not shown: myc and His6 tags at the C-terminus of the VHH (pET-22)) VHH: QVKLEESGGGLVQPGGSLRLSCAASRSISSINAMNWYRQAPGKRREWVAQITGEGITNYRDSVKGRFTITSDNAKNTMYLQMNSLKPEDTAVYYCNAFVIHTTSEVYWGQGTLVTVSS	0.448 OD units
BCD106-02_L.Alecto.VHHSel2_MP1_G7_53 (VHH, Llama anti-CD47 VHH tested as E. coli culture supernatant; not shown: myc and His6 tags at the C-terminus of the VHH (pET-22)) VHH: QVKLEESGGGLVQPGGSLTLSCAASGIISSINAMNWYRQAPGKRREWVAQITGEGITNCRDSWKGRFSITSDSANNTMYLQMNNLKPDDTDVYYCNAFVIHTTSEIYWGLGTTVTVSS	0.498 OD units
